test system: DMS-273; test: NCI tumour cell line growth inhibition, 48 h
Activity calls are given as the source filed them. Rule as the data show it: active = GI50 up to about 1.1 µM and inactive = higher.
endpoint name: GI50

Asked: // lookup GI50 for O=C(CC1C(=O)Nc2ccccc2[S+]1[O-])Nc1ccccc1 (stereo unspecified)
Given back: > 100 µM (inactive)

Asked: And C[C@]12CC[C@H](OC3OC(CO)C(O)C(O)C3O)C[C@H]1CC[C@@H]1[C@@H]2CC[C@]2(C)[C@@H](C3=CCOC3=O)CC[C@]12O (stereo partly specified) [ACTODIGIN] ?
Given back: 1.97 µM (inactive)

Asked: And `OCCN1CCN(CCO)Cc2ccccc2OCCOc2ccccc2C1` ?
Given back: > 100 µM (inactive)

Asked: And `CCn1c(=O)c(C(=O)O)c(Cl)c2cc3c(cc21)OCO3` ?
Given back: > 100 µM (inactive)

Asked: And `O=C1CN=C(C[N+](=O)[O-])c2ccccc21` ?
Given back: > 100 µM (inactive)

Asked: And `CN(C)CC/C(=N\Nc1ccc(Cl)c(Cl)c1)c1ccccc1` ?
Given back: 1.75 µM (inactive)

Asked: And CC(=O)OC1COC(N2CCc3ccccc32)C(OC(C)=O)C1OC(C)=O (stereo unspecified) ?
Given back: > 100 µM (inactive)

Asked: And CC(C)[C@H](CCl)NC(=O)c1cccc(C(=O)N[C@H](CCl)C(C)C)n1 (stereo in doubt) ?
Given back: > 100 µM (inactive)

Asked: And `O=C(N/C(=C\c1ccc(Br)cc1)c1nc2ccccc2[nH]1)c1ccccc1` ?
Given back: 24.3 µM (inactive)

Asked: And CCOC(=O)C1(C#N)C(c2ccccc2)CC(O)(c2ccc(Cl)cc2)C(C(=O)c2ccc(Cl)cc2)C1c1ccccc1 (stereo unspecified) ?
Given back: 67.1 µM (inactive)

Asked: And O=C1C2C3CC(C4C5C=CC(C5)C34)C2C2C3CC(C12)C1C2C=CC(C2)C31 (stereo unspecified) ?
Given back: > 100 µM (inactive)

Asked: And `S=c1nc(N2CCCCC2)ss1` ?
Given back: 17.5 µM (inactive)

Asked: And `Clc1cc2ns[s+]c2cc1Cl` ?
Given back: 32.3 µM (inactive)

Asked: And O=C1C(CN2CCCCC2)CCCC1CN1CCCCC1 (stereo unspecified) ?
Given back: 29.6 µM (inactive)

Asked: And `CC1(C)N=C(N)N=C(N)N1c1ccc(CCc2ccccc2)cc1` ?
Given back: 0.7 µM (active)

Asked: And `CC(C)=CC(=O)N1CCN(C(=O)C=C(C)C)CC1` ?
Given back: > 100 µM (inactive)

Asked: And Cc1cc2c(C(C)C)c(O)c(O)c(C=O)c2c(O)c1-c1c(C)cc2c(C(C)C)c(O)c(O)c(C=O)c2c1O [GOSSYPOL] ?
Given back: 4.4 µM (inactive)

Asked: And `CC12CC3CC(C1)CC(N=[N+]=[N-])(C3)C2` ?
Given back: > 100 µM (inactive)

Asked: And COc1cccc2c1C(=O)c1c(O)c3c(c(O)c1C2=O)CC(O)(C(C)=O)CC3OC1CC([N+](C)(C)C)C(O)C(C)O1 (stereo unspecified) ?
Given back: 27.5 µM (inactive)

Asked: And COS(=O)CCOC(=O)c1ccccc1SSc1ccccc1C(=O)OCCS(=O)OC (stereo unspecified) ?
Given back: 26.4 µM (inactive)

Asked: And COc1ccc(C(c2ccc(C(C)C)cc(=O)c2O)c2ccc3cccnc3c2O)cc1 (stereo unspecified) ?
Given back: 0.31 µM (active)

----------
test system: SNB-75; assay: NCI tumour cell line growth inhibition, 48 h
Activity calls are given as the source filed them. Rule as the data show it: active = GI50 up to about 1.1 µM and inactive = higher.
Return exactly one item of label 1 = active, label 0 = inactive

Asked: Give the logged outcome of this assay for the following compound: O=C1C2C3CC(C4C5C=CC(C5)C34)C2C2C3CC(C12)C1C2C=CC(C2)C31 (stereo not given)
Given back: label 0

Asked: And `COc1ccc(C2=C(N)c3c(Cl)cccc3C2=O)cc1` ?
Given back: label 0

Asked: And CC1(C)CCC2=C(O1)c1ccccc1C(=O)C2=O [LAPACHONE] ?
Given back: label 1

Asked: And O=C(C1C(c2ccccc2)N1C(c1ccccc1)c1ccccc1)C1C(c2ccccc2)N1C(c1ccccc1)c1ccccc1 (stereo not given) ?
Given back: label 0

Asked: And `Clc1ccccc1C(n1ncc2ccccc21)n1ncc2ccccc21` ?
Given back: label 0

Asked: And `Cc1c2cc[n+](C)cc2c(C)c2c1[nH]c1ccc(OC(C)(C)C)cc12` ?
Given back: label 0

Asked: And O=S(=O)(c1ccccc1)N1CCC1c1ccccc1 (stereo not given) ?
Given back: label 0

Asked: And OC1(c2ccccc2)CCCCCCCCC(O)(c2ccccc2)CCCCCCCC1 (stereo not given) ?
Given back: label 0

Asked: And CCOC(=O)c1c(-c2ccc(OC)cc2)c(C#N)c(=S)n(C2OC(COC(C)=O)C(OC(C)=O)C(OC(C)=O)C2OC(C)=O)c1C (stereo not given) ?
Given back: label 0

Asked: And NC1C(O)C(O)C(CO)OC1n1cc(F)c(=O)[nH]c1=O (stereo not given) ?
Given back: label 0

----------
test system: M19-MEL; experiment: NCI tumour cell line growth inhibition, 48 h
The source made the active and inactive calls. Cut-off read from the data, not from the text of the source: active = GI50 up to about 1.1 µM and inactive = higher.
Return exactly one item of t = active, f = inactive

Asked: Give the logged outcome of this assay for the following compound: `Cc1cc(N(CCC#N)CCC#N)ccc1/C=C(\NC(=O)/C=C/c1ccccc1)C(=O)Nc1ccccc1Cl`
Given back: f

Asked: And `CC1(C)N=C(N)N=C(N)N1c1ccc(CCc2ccccc2)cc1` ?
Given back: f

Asked: And `CCN1c2ccccc2-c2c3c1cc(C)cc3c1ccccc1[n+]2CC` ?
Given back: t

Asked: And `N#C/C(=C\c1cccc(O)c1)C(N)=O` ?
Given back: f

Asked: And CC(=O)NC1C(OCc2ccccc2)OC(COC(=O)CCCCCCCCCCNc2ccc([N+](=O)[O-])c3[nH]c4ccccc4c(=O)c23)C(O)C1OC(C)C(=O)NC(C)C(=O)NC(CCC(N)=O)C(=O)OCc1ccccc1 (stereo not given) ?
Given back: f

Asked: And `CCOC(=O)CCc1c(C)c2c(OC)cc(OC)cc2oc1=O` ?
Given back: f

Asked: And `CC(C)=CC(=O)N1CCN(C(=O)C=C(C)C)CC1` ?
Given back: f

Asked: And `Cc1ccc(S(=O)(=O)CNC(=S)CCCC(=S)NCS(=O)(=O)c2ccc(C)cc2)cc1` ?
Given back: f

Asked: And `COC(=O)N/N=C/C(=C/Nc1ccccc1)[N+](=O)[O-]` ?
Given back: f

Asked: And `CN1C(=S)CSc2ccccc21` ?
Given back: f

----------
tested on: HCT-116; assay: NCI tumour cell line growth inhibition, 48 h
Active and inactive are the calls of the source. No stated cut-off is given here; in the data, active = GI50 up to about 1.1 µM and inactive = higher.
endpoint name: GI50

Asked: // lookup GI50 for `O=[N+]([O-])c1nccn1CCCNc1ccnc2cc(Cl)ccc12`
Given back: 3.47 µM (inactive)

Asked: And `Cc1nnc2nc(-c3ccc(Cl)cc3Cl)cc(-c3ccc(Cl)cc3)n12` ?
Given back: > 100 µM (inactive)

Asked: And `COC(=O)N/N=C/C(=C/Nc1ccccc1)[N+](=O)[O-]` ?
Given back: > 100 µM (inactive)

Asked: And CCOC(=O)C1(C#N)C(c2ccccc2)CC(O)(c2ccc(Cl)cc2)C(C(=O)c2ccc(Cl)cc2)C1c1ccccc1 (stereo not given) ?
Given back: > 100 µM (inactive)

Asked: And `CC(=O)N(C)c1ccc(Nc2ccnc3ccc4nn(C)nc4c23)cc1` ?
Given back: 19 µM (inactive)

Asked: And CCOC(=O)C1=[N+]([O-])OC2=C(O)CCCC21 (stereo not given) ?
Given back: > 100 µM (inactive)

Asked: And `C/C(=N\NC(=O)CC(=O)Nc1ccc(Cl)cc1)c1cc2ccccc2oc1=O` ?
Given back: > 100 µM (inactive)

Asked: And O=C1C(CN2CCCCC2)CCCC1CN1CCCCC1 (stereo not given) ?
Given back: 14.5 µM (inactive)

Asked: And O=S(=O)(N/N=C1\CC2CCC1C2)c1ccccc1 (stereo not given) ?
Given back: > 100 µM (inactive)

Asked: And `COc1ccc(/C=C/C(=N/NC(=O)N/N=C(/C=C/c2ccc(OC)cc2)C(C)(C)CN2CCCCC2)C(C)(C)CN2CCCCC2)cc1` ?
Given back: 1.33 µM (inactive)

----------
tested on: RPMI-8226; experiment: NCI tumour cell line growth inhibition, 48 h
Calls of active or inactive are those of the source. Rule as the data show it: active = GI50 up to about 1.1 µM and inactive = higher.
endpoint name: GI50

Asked: Test system RPMI-8226; read-out GI50; what value for `OCCN1c2ccccc2Sc2ccccc21` ?
Given back: > 10 µM (inactive)

Asked: And `N#CC(C#N)=Cc1ccc(Oc2ccccc2)cc1` ?
Given back: 18.1 µM (inactive)

Asked: And `CCCNC(=O)OCc1c(COC(=O)NCCC)c(-c2ccc(Cl)c(Cl)c2)n2c1CCC2` ?
Given back: 5.02 µM (inactive)

Asked: And CCOP(C)(=O)C(Cc1c[nH]c2ccccc12)C(=O)O (stereo unspecified) ?
Given back: > 100 µM (inactive)

Asked: And COc1cc(C2C3=C(N=C4SC(C(C)=O)=C(C)N42)c2ccccc2CC3)cc(OC)c1OC (stereo unspecified) ?
Given back: 13.8 µM (inactive)

Asked: And `CCCCCCCCCCCCCCCCCc1nc(Cl)nc(Cl)c1Cl` ?
Given back: 24.4 µM (inactive)

Asked: And `COc1cc2nc(-c3cccs3)oc(=O)c2cc1OC` ?
Given back: > 100 µM (inactive)

Asked: And CCOC(=O)c1csc(NC(=O)C(C)N2CCCCC2)n1 (stereo unspecified) ?
Given back: > 100 µM (inactive)

Asked: And `O=S(=O)(O)c1ccc2cc(/N=N\c3cc(S(=O)(=O)O)c4cccnc4c3O)ccc2c1` ?
Given back: > 100 µM (inactive)

Asked: And `COc1ccc(C(SCCO)(c2ccccc2)c2ccc(OC)cc2)cc1` ?
Given back: 24.9 µM (inactive)

Asked: And O=C1C(Cl)C(c2ccccc2Cl)N1n1cnc2ccccc2c1=O (stereo unspecified) ?
Given back: 35 µM (inactive)
